The measurements presented in this section are drawn from paper PMC3656107.

# STUDY SYSTEM: MHC-II DRB1*07:01 (Homo sapiens, UniProt P01903+P01911, A100R/A102G/A103Q/D57E/D86V/E43K/F76Y/K127E/L162R/M171V/P40G/Q125H/Q99D/R33Q/R42Y/R54Q/S133A/S66F/T210M/V115G/Y107V/Y59L/Y89S)
# ASSAY OVERVIEW: Cell-free REVEAL class II stability assay
# PARTICULARS: half-life of peptide-MHC-II complex (h, capped at 120) x Binding Score / 100, conformational ELISA
Field: Stability Index. Provide a value for each of the sequences that follow.

Entry YPHGITDVRPLYSRR [synthetic wild type FVIII 15 mer peptide, region of ns-SNP R484H] needs its Stability Index filled in; supply it. 0.1

# return recorded Stability Index for entry SQFIIMYSLDGKKWQ [synthetic wild type FVIII 15 mer peptide] 0.0

Please report the measured Stability Index for PWFAHRTPMPKIQNV [synthetic wild type FVIII 15 mer peptide, region of ns-SNP R776G] 3.2

Complete the entry with Stability Index for PQVNNPKEWLQVDFQ [synthetic wild type FVIII 15 mer peptide] 0.0

Note down Stability Index recorded for TLTLFPFSGETVFMS [synthetic wild type FVIII 15 mer peptide] 0.0

Using known records, supply Stability Index for IFNPPIIARYIRLHP [synthetic wild type FVIII 15 mer peptide] 0.0

Supply recorded Stability Index for RQNVEGSYDGAYAPV [synthetic wild type FVIII 15 mer peptide, region of ns-SNP D1241E] here. 0.0

Write down Stability Index measured for item SLHAVGVSYWKASEG [synthetic wild type FVIII 15 mer peptide] 0.0

====

Please respond with reported Stability Index for every item in the list.
# STUDY SYSTEM: MHC-II DRB1*03:01 (Homo sapiens, UniProt P01903+P01911, A100K/A102G/A103R/A169T/F55Y/I96L/K41T/L162R/M171V/P40S/Q125H/Q178H/Q39Y/R42S/S66N/T106N/T262R/W38E/Y61H)
# Sequence (P01903 26-254 limits assumed, other chains not shown): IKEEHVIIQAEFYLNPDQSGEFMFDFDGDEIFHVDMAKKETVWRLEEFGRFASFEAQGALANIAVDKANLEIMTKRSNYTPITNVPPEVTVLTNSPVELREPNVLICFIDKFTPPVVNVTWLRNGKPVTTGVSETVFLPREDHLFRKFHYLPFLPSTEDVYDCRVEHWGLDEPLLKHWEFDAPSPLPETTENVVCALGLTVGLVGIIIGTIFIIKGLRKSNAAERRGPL
# ASSAY OVERVIEW: Cell-free REVEAL class II stability assay
# PARTICULARS: half-life of peptide-MHC-II complex (h, capped at 120) x Binding Score / 100, conformational ELISA
Keep it simple and answer with nothing but the number.

Name the recorded Stability Index of the sequence listed here: GITDVRPLYSRRLPK [synthetic wild type FVIII 15 mer peptide, region of ns-SNP R484H] 3.7

Return value of Stability Index for input AWRPQVNNPKEWLQV [synthetic wild type FVIII 15 mer peptide] , no commentary. 0.0

Please give measured Stability Index of the following entry: TVEDGPTKSDPRCLT [synthetic wild type FVIII 15 mer peptide] 0.0

Check the records and state Stability Index for PQVNNPKEWLQVDFQ [synthetic wild type FVIII 15 mer peptide] 0.0

====

# STUDY SYSTEM: MHC-II DRB1*15:03 (Homo sapiens, UniProt P01903+P01911, Y59H)
# Construct: purchased ProImmune
# Sequence (P01903 26-254, other chains not shown): as the sequence (P01903 26-254 limits assumed, other chains not shown) above
# ASSAY OVERVIEW: Cell-free REVEAL class II stability assay
# PARTICULARS: half-life of peptide-MHC-II complex (h, capped at 120) x Binding Score / 100, conformational ELISA
PARAMETER MEASURED: Stability Index
Reply briefly: the number, and no unit.

Fill in reported Stability Index for this entry: RIHPQSWVHQIALRM [synthetic wild type FVIII 15 mer peptide] 0.1

Give recorded Stability Index. DGAYAPVLQDFRSLN [synthetic wild type FVIII 15 mer peptide, region of ns-SNP D1241E] 0.0

Specify Stability Index for HKMVYEDTLTLFPFS [synthetic wild type FVIII 15 mer peptide] and stop. 0.1

Note down Stability Index recorded for VVNSLDPPLLTRYLR [synthetic wild type FVIII 15 mer peptide] 0.1

Write down Stability Index measured for item IARYIRLHPTHYSIR [synthetic wild type FVIII 15 mer peptide] 124.6

Given the sequence YNIYPHGITDVRPLY [synthetic wild type FVIII 15 mer peptide, region of ns-SNP R484H] , write its reported Stability Index. 0.1

Please report Stability Index for the following sequence: TLTLFPFSGETVFMS [synthetic wild type FVIII 15 mer peptide] 0.0

Provide only the value of recorded Stability Index for TVEDGPTKSDPRCLT [synthetic wild type FVIII 15 mer peptide] 0.0

Return the recorded Stability Index value; entry: SRPYNIYPHGITDVR [synthetic wild type FVIII 15 mer peptide, region of ns-SNP R484H] 0.1

Look up Stability Index of TRYLRIHPQSWVHQI [synthetic wild type FVIII 15 mer peptide] and report it. 30.5

Fill in Stability Index for record PPLLTRYLRIHPQSW [synthetic wild type FVIII 15 mer peptide] 26.0

Return value of Stability Index for input PLLTRYLRIHPQSWV [synthetic wild type FVIII 15 mer peptide] , no commentary. 12.8

Specify reported Stability Index for the sequence shown: PENDIEKTDPWFAHR [synthetic wild type FVIII 15 mer peptide, region of ns-SNP R776G] 0.0

Return reported Stability Index. Input sequence: QKTMKVTGVTTQGVK [synthetic wild type FVIII 15 mer peptide, region of ns-SNP M2238V] 0.0

Answer with the recorded Stability Index for the sequence listed here: YPHGITDVRPLYSRR [synthetic wild type FVIII 15 mer peptide, region of ns-SNP R484H] 0.1

Identify the reported Stability Index for the following entry. LQVDFQKTMKVTGVT [synthetic wild type FVIII 15 mer peptide, region of ns-SNP M2238V] 0.0

Note down Stability Index recorded for FSSLYISQFIIMYSL [synthetic wild type FVIII 15 mer peptide] 0.1

Answer with the recorded Stability Index of MKVTGVTTQGVKSLL [synthetic wild type FVIII 15 mer peptide, region of ns-SNP M2238V] only. 0.0

Dear colleague, please send me the reported Stability Index for ASEGAEYDDQTSQRE [synthetic wild type FVIII 15 mer peptide] when you can. 0.0

Specify measured Stability Index for PKEWLQVDFQKTMKV [synthetic wild type FVIII 15 mer peptide, region of ns-SNP M2238V] . 0.0

Give the measured Stability Index for YTFKHKMVYEDTLTL [synthetic wild type FVIII 15 mer peptide] 0.1

Please list Stability Index recorded for the sequence AVGVSYWKASEGAEY [synthetic wild type FVIII 15 mer peptide] 0.0

State its Stability Index for this sequence: DVRPLYSRRLPKGVK [synthetic wild type FVIII 15 mer peptide, region of ns-SNP R484H] 2.8

For PQVNNPKEWLQVDFQ [synthetic wild type FVIII 15 mer peptide] , write its Stability Index. 0.0

Identify the reported Stability Index for the following entry. PRCLTRYYSSFVNME [synthetic wild type FVIII 15 mer peptide] 86.8

Check the records and state Stability Index for SLHAVGVSYWKASEG [synthetic wild type FVIII 15 mer peptide] 0.0

Provide Stability Index value for the following sequence: TKSDPRCLTRYYSSF [synthetic wild type FVIII 15 mer peptide] 1.6

Dear colleague, please send me the reported Stability Index for YIRLHPTHYSIRSTL [synthetic wild type FVIII 15 mer peptide] when you can. 281.7

Respond only with Stability Index recorded for AWRPQVNNPKEWLQV [synthetic wild type FVIII 15 mer peptide] 0.1

Give the reported value of Stability Index for this record: LSTRQNVEGSYDGAY [synthetic wild type FVIII 15 mer peptide, region of ns-SNP D1241E] 0.0

Could you please provide reported Stability Index for DIEKTDPWFAHRTPM [synthetic wild type FVIII 15 mer peptide, region of ns-SNP R776G] ? Thanks! 0.0

Return reported Stability Index. Input sequence: LFLLSTRQNVEGSYD [synthetic wild type FVIII 15 mer peptide, region of ns-SNP D1241E] 0.0

Give a short answer stating reported Stability Index for SQFIIMYSLDGKKWQ [synthetic wild type FVIII 15 mer peptide] . 16.4

====

# STUDY SYSTEM: MHC-II DRB1*15:01 (Homo sapiens, UniProt P01903+P01911)
# Construct: purchased ProImmune
# ASSAY OVERVIEW: Cell-free REVEAL class II stability assay
# PARTICULARS: half-life of peptide-MHC-II complex (h, capped at 120) x Binding Score / 100, conformational ELISA
For each record, check the reported Stability Index: if it is below 3 write met, else write not met.

Item TLTLFPFSGETVFMS [synthetic wild type FVIII 15 mer peptide] : Stability Index beneath 3, strictly? met

State whether 3 exceeds Stability Index recorded for TRYLRIHPQSWVHQI [synthetic wild type FVIII 15 mer peptide] . not met

Quick check: Stability Index of VVNSLDPPLLTRYLR [synthetic wild type FVIII 15 mer peptide] under 3? not met

Quick check: Stability Index of RIHPQSWVHQIALRM [synthetic wild type FVIII 15 mer peptide] under 3? not met

Here's an entry: IFNPPIIARYIRLHP [synthetic wild type FVIII 15 mer peptide] . Is its Stability Index below 3? not met

Just wondering, is Stability Index of AVGVSYWKASEGAEY [synthetic wild type FVIII 15 mer peptide] below 3? met

Hi there! Is Stability Index for DVRPLYSRRLPKGVK [synthetic wild type FVIII 15 mer peptide, region of ns-SNP R484H] below 3, do you know? not met

In the record for YPHGITDVRPLYSRR [synthetic wild type FVIII 15 mer peptide, region of ns-SNP R484H] , is Stability Index less than 3? met

A record lists YTFKHKMVYEDTLTL [synthetic wild type FVIII 15 mer peptide] . Is its Stability Index below 3? met

Find out if reported Stability Index for SRPYNIYPHGITDVR [synthetic wild type FVIII 15 mer peptide, region of ns-SNP R484H] is less than 3 met

Stability Index under 3? Item: YNIYPHGITDVRPLY [synthetic wild type FVIII 15 mer peptide, region of ns-SNP R484H] met

Here's an entry: KMVYEDTLTLFPFSG [synthetic wild type FVIII 15 mer peptide] . Is its Stability Index below 3? met

Would you kindly verify if Stability Index of PQVNNPKEWLQVDFQ [synthetic wild type FVIII 15 mer peptide] is strictly less than 3? met

Find out if reported Stability Index for QKTMKVTGVTTQGVK [synthetic wild type FVIII 15 mer peptide, region of ns-SNP M2238V] is less than 3 met

State whether 3 exceeds Stability Index recorded for HKMVYEDTLTLFPFS [synthetic wild type FVIII 15 mer peptide] . met

Could you please tell me whether Stability Index recorded for GPTKSDPRCLTRYYS [synthetic wild type FVIII 15 mer peptide] is less than 3? not met
